Please go through the items and note down their Kd.
- target.of.assay: T1, Human Glypican3-Fc (ACRO Biosystems, GP3-H5258) (human, UniProt P51654 25-559)
- T1 construct: Bought fusion protein, captured in Methods B-2, B-3 and B-4; Catalogue number is printed only in Method B-2; not shown: Fc part of the bought fusion
- test.description: SPR (Biacore T200), Method B-3: Glypican3-Fc captured on Protein A chip, peptide as analyte
Starred links: 1 amine or outer side, 2 acyl side, 3 side chain; linkers in the order of their positions; H or OH if unused. Positions of bridges follow the written chain, without caps; N, C: chain ends. Non-standard residues stand in square brackets, D forms with d. Primed or numbered codes have the meaning given here. F4aao = 4-(carboxymethoxy)-L-phenylalanine, O=C([C@H](Cc1ccc(OCC(=O)[*:3])cc1)N[*:1])[*:2]; SulfoCy5″ = sulfo-Cyanine5 hexanoyl dye as amide on the lysine NZ; TMe = O-methyl-L-threonine, CO[C@H](C)[C@H](N[*:1])C(=O)[*:2]; NMeAla(isoquinolin-7-yl) = CN[C@@H](Cc1ccc2ccncc2c1)C(=O)O; SulfoCy5(3) = sulfo-Cyanine5 hexanoyl dye on the lysine NZ; 3Pal(6-Ph) = N[C@@H](Cc1ccc(-c2ccccc2)nc1)C(=O)O; Phe(4-COOH) = N[C@@H](Cc1ccc(C(=O)O)cc1)C(=O)O; NMeI = CC[C@H](C)[C@H](NC)C(=O)O; NMeQ = CN[C@@H](CCC(N)=O)C(=O)O; NMeK = CN[C@@H](CCCCN)C(=O)O; NMeC = CN[C@@H](CS)C(=O)O

Some binders with recorded Kd:
>  <binder>
KQDQFTIFFGXC (biotin-PEG12c conjugate of the peptide of SEQ ID No. 35 (MeK-MeQ-D-MeQ-F4COO-TMe-I-F4aao-MeNal27N-G-3Py6Ph-MeC-NH2); site of attachment shown only in a drawing; thioether ring from N-terminal acetyl to MeC12) [PLB-35]

>  <Kd>
3.63 nM

$$$$
>  <binder>
{CH2CO}-[NMeK](dE)[NMeI]D[NMeQ][Phe(4-COOH)]II[F4aao][NMeAla(isoquinolin-7-yl)]G[3Pal(6-Ph)][NMeC]-NH2 (thioether N-12) [Macrocyclic peptide of Example B9 (SEQ ID No. 33)]

>  <Kd>
0.52 nM

$$$$
>  <binder>
{CH2CO}-[NMeK](SulfoCy5(3))[NMeI]D[NMeQ][Phe(4-COOH)]IIY[NMeAla(isoquinolin-7-yl)]G[3Pal(6-Ph)][NMeC]-NH2 (thioether N-12) [PLD-1]

>  <Kd>
0.32 nM

$$$$

Moving on to another binder below.
## Task Report Kd for {CH2CO}-[NMeK](SulfoCy5″)[NMeI]D[NMeQ][Phe(4-COOH)][TMe]I[F4aao][NMeAla(isoquinolin-7-yl)]G[3Pal(6-Ph)][NMeC]-NH2 (thioether N-12) [PLD-30] please.
## Result 1.08 nM
